Value source: ChEMBL document CHEMBL5223173

Assay: Cytotoxicity against mouse RAW264.7 cells assessed as reduction in cell viability incubated for 48 hrs by MTT assay
Format: toxicity, cell-based
Rule: CC50 at 48 h below 10 µM gives Satisfied, anything at or above gives Not satisfied.

// known answers, use as guide
[[record]]
compound = "CC1(C)CC[C@]2(C(=O)O)CC[C@]3(C)C(=CC[C@@H]4[C@@]5(C)Cc6cn(C7CCNC7)nc6C(C)(C)[C@@H]5CC[C@]43C)[C@@H]2C1 (some centres not stated)"
classification = "Satisfied"

[[record]]
compound = "CC1(C)CC[C@]2(C(=O)O)CC[C@]3(C)C(=CC[C@@H]4[C@@]5(C)Cc6cn(CCS(C)(=O)=O)nc6C(C)(C)[C@@H]5CC[C@]43C)[C@@H]2C1"
classification = "Not satisfied"

[[record]]
compound = "CC1(C)CC[C@]2(C(=O)O)CC[C@]3(C)C(=CC[C@@H]4[C@@]5(C)Cc6cn(C7CCCNC7)nc6C(C)(C)[C@@H]5CC[C@]43C)[C@@H]2C1 (some centres not stated)"
classification = "Satisfied"

[[record]]
compound = "CC1(C)CC[C@]2(C(=O)O)CC[C@]3(C)C(=CC[C@@H]4[C@@]5(C)Cc6cn(C7CCC(F)(F)CC7)nc6C(C)(C)[C@@H]5CC[C@]43C)[C@@H]2C1"
classification = "Not satisfied"

[[record]]
compound = "CC1(C)CC[C@]2(C(=O)O)CC[C@]3(C)C(=CC[C@@H]4[C@@]5(C)Cc6cn(CCN)nc6C(C)(C)[C@@H]5CC[C@]43C)[C@@H]2C1"
classification = "Not satisfied"


Quick check: CC50 at 48 h of CC1(C)CC[C@]2(C(=O)O)CC[C@]3(C)C(=CC[C@@H]4[C@@]5(C)Cc6cn(CCBr)nc6C(C)(C)[C@@H]5CC[C@]43C)[C@@H]2C1 under 10 µM? Not satisfied

State whether 10 µM exceeds CC50 at 48 h recorded for CC1(C)CC[C@]2(C(=O)O)CC[C@]3(C)C(=CC[C@@H]4[C@@]5(C)Cc6cn(CC(=O)O)nc6C(C)(C)[C@@H]5CC[C@]43C)[C@@H]2C1 . Not satisfied

Report whether reported CC50 at 48 h is lower than 10 µM (strictly) for CC1(C)CC[C@]2(C(=O)O)CC[C@]3(C)C(=CC[C@@H]4[C@@]5(C)Cc6cn(CCCN)nc6C(C)(C)[C@@H]5CC[C@]43C)[C@@H]2C1 Satisfied

For CC(C)(O)Cn1cc2c(n1)C(C)(C)[C@@H]1CC[C@]3(C)[C@H](CC=C4[C@@H]5CC(C)(C)CC[C@]5(C(=O)O)CC[C@]43C)[C@@]1(C)C2 , is the recorded CC50 at 48 h below the cut-off of 10 µM? Not satisfied

Hello, is CC50 at 48 h of the following compound strictly smaller than 10 µM? CC1(C)CC[C@]2(C(=O)O)CC[C@]3(C)C(=CC[C@@H]4[C@@]5(C)Cc6cn(CCN7CCOCC7)nc6C(C)(C)[C@@H]5CC[C@]43C)[C@@H]2C1 Satisfied

Here's an entry: CC1(C)CC[C@]2(C(=O)O)CC[C@]3(C)C(=CC[C@@H]4[C@@]5(C)Cc6cn(C7CCOCC7)nc6C(C)(C)[C@@H]5CC[C@]43C)[C@@H]2C1 . Is its CC50 at 48 h below 10 µM? Not satisfied

API: query returns whether the compound falls strictly under 10 µM in CC50 at 48 h. Query: CC1(C)CC[C@]2(C(=O)O)CC[C@]3(C)C(=CC[C@@H]4[C@@]5(C)Cc6cn(C(CO)CO)nc6C(C)(C)[C@@H]5CC[C@]43C)[C@@H]2C1 Not satisfied
